Target: Human HER2 expressed on tumour cells (human, UniProt P04626 23-1255)
Assay: cell-based or functional assay
MEASUREMENT TYPE: % activity vs. DARPin # 41, BT474 cell proliferation (%)
Write the value in % as a bare number.

- BINDER: "DARPin #28 (designed binder) MRGSHHHHHHGSDLGVKLLWAAARGQDDEVRILLAAGADVNAKDFQGITPLHIAATNGHLEIVEVLLKAGADVNAKDITGETPLHHAADSGHLEIVEVLLKAGADVNAQDKAGVTPADLAAAWGHEDIAEVLQKLGGGGSGGGGSRSDLGAKLLVAATSGQDDEVRILLAAGADVNAKDRIGFTPLHRAAFVGHLEIVEVLLKAGADVNAQDDFGHTPADLAASLGHEDIAEVLQKLN"
  ENDPOINT VALUE: 82.5
- BINDER: "DARPin #35 (designed binder) MRGSHHHHHHGSDLGIKLLFAAAKGQDDEVRILLAAGADVNAKDFEGYTPLHVAAYDGHLEIVEVLLKAGADVNAKDSQGRTPLHEAAYSGHLEIVEVLLKAGADVNAQDDAGETPADLAAAWGHEDIAEVLQKLGGGGSGGGGSRSDLGIKLLQAANLGQDDEVRILLATGADVNAKDSIGQTPLHWAARRGHLEIVEVLLKAGADVNAKDEYGVTPLHLAASLGHLEIVEVLLKAGADVNAQDESGETPADLAALHGHEDIAEVLQKLN"
  ENDPOINT VALUE: 63
- BINDER: "DARPin #45 (designed binder) MRGSHHHHHHGSDLGKKLLEAARAGQDDEVRILMANGADVNAKDFYGITPLHLAAAYGHLEIVEVLLKHGADVNAHDWNGWTPLHLAAKYGHLEIVEVLLKHGADVNAIDNAGKTPLHLAAAHGHLEIVEVLLKYGADVNAQDKFGKTAFDISIDNGNEDLAEILQKLGGGGSGGGGSRSDLGKKLLEAARAGQDDEVRILMANGADVNAKDEYGLTPLYLATAHGHLEIVEVLLKNGADVNAVDAIGFTPLHLAAFIGHLEIAEVLLKHGADVNAQDKFGKTAFDISIGNGNEDLAEILQKLN"
  ENDPOINT VALUE: 100
- BINDER: "DARPin #37 (designed binder) MRGSHHHHHHGSDLGIKLLFAAAKGQDDEVRILLAAGADVNAKDFEGYTPLHVAAYDGHLEIVEVLLKAGADVNAKDSQGRTPLHEAAYSGHLEIVEVLLKAGADVNAQDDAGETPADLAAAWGHEDIAEVLQKLGGGGSGGGGSRSDLGKKLLEAARAGQDDEVRILMANGADVNAKDEYGLTPLYLATAHGHLEIVEVLLKNGADVNAVDAIGFTPLHLAAFIGHLEIAEVLLKHGADVNAQDKFGKTAFDISIGNGNEDLAEILQKLN"
  ENDPOINT VALUE: 94.8

Now look at this entry.
Q: What value of measured % activity vs. DARPin # 41, BT474 cell proliferation is listed for DARPin #38 (designed binder) MRGSHHHHHHGSDLGHKLLEAAVAGQDDEVRILLAAGADVNAKDWYGKTPLHFAAGLGHLEIVEVLLKAGADVNAKDEDGQTPLHLAAAYGHLEIVEVLLKAGADVNAQDNDGFTPADLAADSGHEDIAEVLQKLGGGGSGGGGSRSDLGIKLLQAANLGQDDEVRILLATGADVNAKDSIGQTPLHWAARRGHLEIVEVLLKAGADVNAKDEYGVTPLHLAASLGHLEIVEVLLKAGADVNAQDESGETPADLAALHGHEDIAEVLQKLN ?
A: 99.3
